- tested_target: INS-R (Homo sapiens, UniProt P06213)
- Construct: host or cells: Sf9 insect cells (baculovirus)
- Sequence (P06213 980-1382 limits assumed): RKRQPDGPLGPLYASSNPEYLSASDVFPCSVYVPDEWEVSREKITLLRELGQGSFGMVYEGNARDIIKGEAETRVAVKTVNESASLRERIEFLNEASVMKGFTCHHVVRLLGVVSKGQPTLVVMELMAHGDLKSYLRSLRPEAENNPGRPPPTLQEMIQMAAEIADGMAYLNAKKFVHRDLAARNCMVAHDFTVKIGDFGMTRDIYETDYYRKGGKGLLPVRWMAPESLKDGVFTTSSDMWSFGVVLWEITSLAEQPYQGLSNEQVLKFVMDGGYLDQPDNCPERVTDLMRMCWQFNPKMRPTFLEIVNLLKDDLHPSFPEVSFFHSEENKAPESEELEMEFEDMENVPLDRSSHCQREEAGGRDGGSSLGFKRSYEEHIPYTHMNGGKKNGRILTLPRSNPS
- experiment: Radiometric protein kinase assay, INS-R
- Assay type: biochemical
- reported_conditions: 1 μM ATP; read-out: Inhibitory activity (IC50:μM) INS-R
Listed here are compounds together with their documented IC50.
Output spec: scalar in µM, unitless text.

compound: O=C1Cc2c(Cl)c(O)cc(O)c2C(=O)O[C@H](c2ccccc2)C/C=C/CCC(Cl)C1 (some centres unmarked)
tested_target: INS-R (Homo sapiens, UniProt P06213)
IC50, µM: 44

Please turn your attention to the following entry.
### Prompt // lookup IC50 for COC1CC/C=C/C[C@H](c2ccccc2)OC(=O)c2c(O)cc(O)c(Cl)c2CC(=O)C1 (some centres unmarked)
### Response 36
